Measured IC50 values are reported for all entries that follow.
- target-or-system: IL23R_huFC (human) (UniProt Q5VWK5)
- Sequence (Q5VWK5 24-353): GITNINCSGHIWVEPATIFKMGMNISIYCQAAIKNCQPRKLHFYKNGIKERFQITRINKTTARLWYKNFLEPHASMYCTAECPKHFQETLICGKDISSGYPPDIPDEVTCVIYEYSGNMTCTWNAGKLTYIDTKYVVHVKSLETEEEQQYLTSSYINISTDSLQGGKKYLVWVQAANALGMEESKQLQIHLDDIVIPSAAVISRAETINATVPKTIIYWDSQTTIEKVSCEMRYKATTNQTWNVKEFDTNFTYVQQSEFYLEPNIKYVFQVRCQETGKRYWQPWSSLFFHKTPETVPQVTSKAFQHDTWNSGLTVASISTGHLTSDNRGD
- protocol-details: human ELISA vs IL-23
Bridges are numbered along the chain shown (N, C = ends). [ ]: non-standard residue; d: D form. 2Nal = N[C@@H](Cc1ccc2ccccc2c1)C(=O)O; AEF = NCCOc1ccc(C[C@H](N)C(=O)O)cc1; Orn = NCCC[C@H](N)C(=O)O; Dab = NCC[C@H](N)C(=O)O; Abu = CC[C@H](N)C(=O)O; Dap = NC[C@H](N)C(=O)O; Aib = CC(C)(N)C(=O)O

{"binder": "Ac-[Abu]QTWQC[AEF][2Nal][Aib]E[Dab](Ac)G-NH2 (thioether 1-6) [Ac-Cyclo-[[Abu]-QTWQC]-[Phe[4-(2-aminoethoxy)]]-[2-Nal]-[Aib]-E-[Dab(Ac)]-G-NH2]", "IC50": "< 10 nM"}
{"binder": "Ac-[Abu]QTWQC[AEF][2Nal][Orn][Dap](Ac)NG-NH2 (thioether 1-6) [Ac-Cyclo-[[Abu]-QTWQC]-[Phe[4-(2-aminoethoxy)]]-[2-Nal]-[Orn]-[Dap(Ac)]-NG-NH2]", "IC50": "25 to 100 nM"}
{"binder": "Ac-[Abu]QTWQC[AEF][2Nal][Orn][Dap]NG-NH2 (thioether 1-6) [Ac-Cyclo-[[Abu]-QTWQC]-[Phe[4-(2-aminoethoxy)]]-[2-Nal]-[Orn]-[Dap]-NG-NH2]", "IC50": "25 to 100 nM"}

Now look at this entry.
// query Which IC50 reading was recorded for the binder Ac-[Abu]QTWQC[AEF][2Nal][Aib]E[Dap](Ac)G-NH2 (thioether 1-6) [Ac-Cyclo-[[Abu]-QTWQC]-[Phe[4-(2-aminoethoxy)]]-[2-Nal]-[Aib]-E-[Dap(Ac)]-G-NH2] ?
// result 10 to 25 nM
